# test.target: T1, APJ-eGFP fusion protein on CHO-M1 cells (UniProt P35414 1-380)
# T1 sequence (looked up): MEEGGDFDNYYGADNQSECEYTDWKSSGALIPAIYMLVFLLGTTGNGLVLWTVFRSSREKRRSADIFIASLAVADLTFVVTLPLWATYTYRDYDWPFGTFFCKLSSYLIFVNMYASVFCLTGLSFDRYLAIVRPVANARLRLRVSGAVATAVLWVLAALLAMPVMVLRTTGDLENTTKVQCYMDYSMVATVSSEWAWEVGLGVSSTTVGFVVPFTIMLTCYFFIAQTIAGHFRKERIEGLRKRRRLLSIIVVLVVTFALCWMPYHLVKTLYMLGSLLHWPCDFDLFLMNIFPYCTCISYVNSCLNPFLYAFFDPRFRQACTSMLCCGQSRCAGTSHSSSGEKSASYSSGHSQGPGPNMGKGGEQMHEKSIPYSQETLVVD
# run.description: cell-based or functional assay
So I've got a bunch of binders here, and I need their Internalization Score values.
Answers are plain numbers.

Examples from the recorded data:
APL-H (Fc fusion) DKTHTSPPSPAPEAAGGPSVFLFPPKPKDTLMISRTPEVTCVVVDVSHEDPEVKFNWYVDGVEVHNAKTKPREEQYNSTYRVVSVLTVLHQDWLNGKEYKCKVSNKALPAPIEKTISKAKGQPREPQVYTLPPSREEMTKNQVNLTCLVKGFYPSDIAVEWESNGQPENNYKTTPPVLDSDGSFFLNSTLTVDKSRWQQGNVFSCSVMHEALHNHYTQKSLSLSPGKGGGGSGGGGSGGGGSQRPRLSHKGPMHW: 0
APL-K (Fc fusion) DKTHTSPPSPAPEAAGGPSVFLFPPKPKDTLMISRTPEVTCVVVDVSHEDPEVKFNWYVDGVEVHNAKTKPREEQYNSTYRVVSVLTVLHQDWLNGKEYKCKVSNKALPAPIEKTISKAKGQPREPQVYTLPPSREEMTKNQVNLTCLVKGFYPSDIAVEWESNGQPENNYKTTPPVLDSDGSFFLNSTLTVDKSRWQQGNVFSCSVMHEALHNHYTQKSLSLSPGKGGGGSGGGGSGGGGSQRPRLQHKNPMAF: 0
ELA-H (Fc fusion) DKTHTSPPSPAPEAAGGPSVFLFPPKPKDTLMISRTPEVTCVVVDVSHEDPEVKFNWYVDGVEVHNAKTKPREEQYNSTYRVVSVLTVLHQDWLNGKEYKCKVSNKALPAPIEKTISKAKGQPREPQVYTLPPSREEMTKNQVNLTCLVKGFYPSDIAVEWESNGQPENNYKTTPPVLDSDGSFFLNSTLTVDKSRWQQGNVFSCSVMHEALHNHYTQKSLSLSPGKGGGGSGGGGSGGGGSKLRKHNCLQRRCMPYHSRVPFP: 2
APL-J (Fc fusion) DKTHTSPPSPAPEAAGGPSVFLFPPKPKDTLMISRTPEVTCVVVDVSHEDPEVKFNWYVDGVEVHNAKTKPREEQYNSTYRVVSVLTVLHQDWLNGKEYKCKVSNKALPAPIEKTISKAKGQPREPQVYTLPPSREEMTKNQVNLTCLVKGFYPSDIAVEWESNGQPENNYKTTPPVLDSDGSFFLNSTLTVDKSRWQQGNVFSCSVMHEALHNHYTQKSLSLSPGKGGGGSGGGGSGGGGSQRPRLSHKGPAAY: 1

Hello, I would appreciate it if you could give Internalization Score for each entry below.
1. ELA-A (Fc fusion) DKTHTSPPSPAPEAAGGPSVFLFPPKPKDTLMISRTPEVTCVVVDVSHEDPEVKFNWYVDGVEVHNAKTKPREEQYNSTYRVVSVLTVLHQDWLNGKEYKCKVSNKALPAPIEKTISKAKGQPREPQVYTLPPSREEMTKNQVNLTCLVKGFYPSDIAVEWESNGQPENNYKTTPPVLDSDGSFFLNSTLTVDKSRWQQGNVFSCSVMHEALHNHYTQKSLSLSPGKGGGGSGGGGSGGGGSKLRKHNCLQRRCMPLHSRVPFP
2. ELA-C (Fc fusion) DKTHTSPPSPAPEAAGGPSVFLFPPKPKDTLMISRTPEVTCVVVDVSHEDPEVKFNWYVDGVEVHNAKTKPREEQYNSTYRVVSVLTVLHQDWLNGKEYKCKVSNKALPAPIEKTISKAKGQPREPQVYTLPPSREEMTKNQVNLTCLVKGFYPSDIAVEWESNGQPENNYKTTPPVLDSDGSFFLNSTLTVDKSRWQQGNVFSCSVMHEALHNHYTQKSLSLSPGKGGGGSGGGGSGGGGSKLRKHNCLQRRCMILHSRVPFP
3. APL-M (Fc fusion) DKTHTSPPSPAPEAAGGPSVFLFPPKPKDTLMISRTPEVTCVVVDVSHEDPEVKFNWYVDGVEVHNAKTKPREEQYNSTYRVVSVLTVLHQDWLNGKEYKCKVSNKALPAPIEKTISKAKGQPREPQVYTLPPSREEMTKNQVNLTCLVKGFYPSDIAVEWESNGQPENNYKTTPPVLDSDGSFFLNSTLTVDKSRWQQGNVFSCSVMHEALHNHYTQKSLSLSPGKGGGGSGGGGSGGGGSQRPRLSHWGPMAW
4. APL-A (Fc fusion) DKTHTSPPSPAPEAAGGPSVFLFPPKPKDTLMISRTPEVTCVVVDVSHEDPEVKFNWYVDGVEVHNAKTKPREEQYNSTYRVVSVLTVLHQDWLNGKEYKCKVSNKALPAPIEKTISKAKGQPREPQVYTLPPSREEMTKNQVNLTCLVKGFYPSDIAVEWESNGQPENNYKTTPPVLDSDGSFFLNSTLTVDKSRWQQGNVFSCSVMHEALHNHYTQKSLSLSPGKGGGGSGGGGSGGGGSQRPRLSHKGPMPF
5. ELA-L (Fc fusion) DKTHTSPPSPAPEAAGGPSVFLFPPKPKDTLMISRTPEVTCVVVDVSHEDPEVKFNWYVDGVEVHNAKTKPREEQYNSTYRVVSVLTVLHQDWLNGKEYKCKVSNKALPAPIEKTISKAKGQPREPQVYTLPPSREEMTKNQVNLTCLVKGFYPSDIAVEWESNGQPENNYKTTPPVLDSDGSFFLNSTLTVDKSRWQQGNVFSCSVMHEALHNHYTQKSLSLSPGKGGGGSGGGGSGGGGSKLRKHNCATRRCMPLHSRVPFP

3
2
0
2
2
